Data provenance is patent US20210363269A1.

Below: a set of entries, each annotated with reported Kd.
test target: T1, human SIRP-α v1 (human, UniProt P78324 31-149)
T1 construct: also called Human v1; Human V1
T1 sequence (P78324 31-149 limits assumed): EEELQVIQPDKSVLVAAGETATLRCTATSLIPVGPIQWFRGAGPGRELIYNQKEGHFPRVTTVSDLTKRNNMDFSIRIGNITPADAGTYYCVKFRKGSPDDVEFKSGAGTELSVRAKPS
protocol: SPR
endpoint label: Kd

binder="antibody 120 (antibody, V domains shown, also called S120) VH: VQLVESGGGVVQPGGSLRLSCAASGFSFSNFAMTWVRQAPGEGLEWVSTIGSGDTYYADSVKGRFTISRDNSKNTLYLQMNSLRAEDTAVYYCAKDSTVSWSGDFFDYWGLGTRVTVSS VL: EIVLTQSPATLSVSPGERATFSCRASQNVKNDLAWYQQRPGQAPRLLIYAARIRETGIPERFSGSGSGTEFTLTITSLQSEDFAVYYCQQYYDWPPFTFGGGTKVEIK" reported_result="0.214 nM"
binder="antibody 119 (antibody, V domains shown, also called AB119; S119) VH: DVQLLESGGGVVQPGGSLRLSCAASGFSFSNFAMTWVRQAPGEGLEWVSTIGSGDTYYADSVKGRFTISRDNSKNTLYLQMNSLRAEDTAVYYCAKDSTVSWSGDFFDYWGLGTLVTVSS VL: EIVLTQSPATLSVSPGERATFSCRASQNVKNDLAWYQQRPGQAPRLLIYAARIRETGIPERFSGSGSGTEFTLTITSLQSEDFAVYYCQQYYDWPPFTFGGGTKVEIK" reported_result="0.183 nM"
